Value source: ChEMBL document CHEMBL3769302

Target: Glycogen phosphorylase, muscle form (Oryctolagus cuniculus, UniProt P00489)
Sequence (P00489 whole entry): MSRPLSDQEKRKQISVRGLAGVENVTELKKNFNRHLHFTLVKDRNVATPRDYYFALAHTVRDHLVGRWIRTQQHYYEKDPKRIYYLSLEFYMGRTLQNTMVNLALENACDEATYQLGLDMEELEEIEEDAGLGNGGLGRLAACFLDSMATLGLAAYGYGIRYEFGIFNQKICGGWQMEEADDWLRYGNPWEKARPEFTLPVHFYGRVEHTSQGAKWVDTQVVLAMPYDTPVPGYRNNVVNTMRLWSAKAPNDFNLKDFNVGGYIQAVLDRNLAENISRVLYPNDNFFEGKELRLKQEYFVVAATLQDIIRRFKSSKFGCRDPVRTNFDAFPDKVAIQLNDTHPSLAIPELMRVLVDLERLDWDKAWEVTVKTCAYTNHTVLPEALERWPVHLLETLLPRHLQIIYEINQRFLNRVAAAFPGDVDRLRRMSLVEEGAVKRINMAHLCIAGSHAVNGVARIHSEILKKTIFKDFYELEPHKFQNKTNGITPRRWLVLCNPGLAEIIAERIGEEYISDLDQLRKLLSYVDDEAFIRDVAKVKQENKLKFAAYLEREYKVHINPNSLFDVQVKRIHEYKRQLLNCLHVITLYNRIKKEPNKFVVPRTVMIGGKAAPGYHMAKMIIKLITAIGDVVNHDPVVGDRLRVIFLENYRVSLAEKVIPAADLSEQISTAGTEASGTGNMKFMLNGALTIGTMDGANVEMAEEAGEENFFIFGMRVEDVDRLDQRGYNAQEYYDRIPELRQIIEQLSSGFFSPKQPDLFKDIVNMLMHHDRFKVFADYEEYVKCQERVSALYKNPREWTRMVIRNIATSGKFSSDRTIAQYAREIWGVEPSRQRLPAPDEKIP
Assay: Inhibition of rabbit muscle glycogen phosphorylase-a assessed as formation of inorganic phosphate from glucose-1-phosphate by colorimetry
Details: read-out: IC50(app)
Collected IC50 values appear next to each entry.
READOUT KIND: IC50 (µM)

O=C(Cn1cccc(NCc2ccc(Cl)c(Cl)c2)c1=O)NCCc1ccc(Cl)c(Cl)c1 22.5
O=C(Cn1cccc(NCc2ccc(Cl)c(Cl)c2)c1=O)Nc1ccc(Cl)c(Cl)c1 18.5
O=C(Cn1cccc(NC(=O)c2ccccc2)c1=O)Nc1ccc(Cl)c(Cl)c1 13
O=C(Cn1cccc(NCc2cccs2)c1=O)NCc1ccc(Cl)c(Cl)c1 19.5
